Numbers sourced from ChEMBL document CHEMBL2010776.

Tested on: Mus musculus
test_details: Acute toxicity in mouse assessed as tolerability up to 150 mg/kg, ip
Type: organism-based
Design: dose 150 mg/kg, route intraperitoneal
experimental_context: in vivo
measurement_name: Activity

INSERT INTO assay_data (molecule, measurement_name, data_value) VALUES
  ('COc1ccc(Cc2nnc(N/N=C3\C(=O)Nc4ccccc43)n(N)c2=O)cc1', 'Activity', 'Non-toxic'),
  ('COc1ccc(CC2=NN3C(=NN(C(C)=O)C34C(=O)N(C(C)=O)c3ccccc34)N(N(C(C)=O)C(C)=O)C2=O)cc1 (centres undefined)', 'Activity', 'Non-toxic'),
  ('CC(=O)NN1C(=O)C(Cc2ccccc2)=NN2C1=NN(C(C)=O)C2(C)c1ccc(Cl)cc1 (racemic)', 'Activity', 'Non-toxic'),
  ('Nn1c(N/N=C2\C(=O)Nc3ccccc32)nnc(Cc2ccccc2)c1=O', 'Activity', 'Non-toxic');

====

experimental_system: Cytochrome P450 1A1 (Rattus norvegicus, UniProt P00185)
Sequence (P00185 whole entry): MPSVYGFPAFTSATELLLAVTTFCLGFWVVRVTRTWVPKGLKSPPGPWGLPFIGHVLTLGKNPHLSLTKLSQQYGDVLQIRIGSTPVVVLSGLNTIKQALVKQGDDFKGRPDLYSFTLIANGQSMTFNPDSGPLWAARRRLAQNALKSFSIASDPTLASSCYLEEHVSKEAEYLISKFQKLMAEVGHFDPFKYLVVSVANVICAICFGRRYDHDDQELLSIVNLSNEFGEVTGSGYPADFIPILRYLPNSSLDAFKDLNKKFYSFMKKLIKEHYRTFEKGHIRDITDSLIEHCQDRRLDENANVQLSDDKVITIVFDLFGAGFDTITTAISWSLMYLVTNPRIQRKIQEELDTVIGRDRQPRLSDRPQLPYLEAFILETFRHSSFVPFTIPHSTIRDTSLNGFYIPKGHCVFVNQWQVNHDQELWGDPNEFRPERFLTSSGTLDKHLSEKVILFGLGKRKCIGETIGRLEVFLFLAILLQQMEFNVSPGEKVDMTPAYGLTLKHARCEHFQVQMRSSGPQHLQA
test_details: Inhibition of CYP1A1 activity in rat liver microsomes using benzo[alpha]pyrene as substrate after 10 mins by fluorescence analysis
Design: species or system Microsome
pIC50: −log10 of the molar value.
Give Satisfied when the value for pIC50 is at least 8. Give Not satisfied when it is less.

[in] Quick check: does Nn1c(N/N=C2\C(=O)Nc3ccccc32)nnc(Cc2ccccc2)c1=O have pIC50 greater than or equal to 8?
[out] Satisfied

[in] Repeat with COc1ccc(CC2=NN3C(=NN(C(C)=O)C34C(=O)N(C(C)=O)c3ccccc34)N(N(C(C)=O)C(C)=O)C2=O)cc1 (stereo unspecified)
[out] Not satisfied

[in] Repeat with COc1ccc(Cc2nnc(N/N=C3\C(=O)Nc4ccccc43)n(N)c2=O)cc1
[out] Satisfied

[in] Repeat with CC(=O)NN1C(=O)C(Cc2ccccc2)=NN2C1=NN(C(C)=O)C2(C)c1ccc(Cl)cc1 (racemic)
[out] Satisfied

====

I'd appreciate it if you could supply inhibition at 10 min values for the items below.
experimental_system: CYP1A1 (Rattus norvegicus)
Sequence (P00185 whole entry): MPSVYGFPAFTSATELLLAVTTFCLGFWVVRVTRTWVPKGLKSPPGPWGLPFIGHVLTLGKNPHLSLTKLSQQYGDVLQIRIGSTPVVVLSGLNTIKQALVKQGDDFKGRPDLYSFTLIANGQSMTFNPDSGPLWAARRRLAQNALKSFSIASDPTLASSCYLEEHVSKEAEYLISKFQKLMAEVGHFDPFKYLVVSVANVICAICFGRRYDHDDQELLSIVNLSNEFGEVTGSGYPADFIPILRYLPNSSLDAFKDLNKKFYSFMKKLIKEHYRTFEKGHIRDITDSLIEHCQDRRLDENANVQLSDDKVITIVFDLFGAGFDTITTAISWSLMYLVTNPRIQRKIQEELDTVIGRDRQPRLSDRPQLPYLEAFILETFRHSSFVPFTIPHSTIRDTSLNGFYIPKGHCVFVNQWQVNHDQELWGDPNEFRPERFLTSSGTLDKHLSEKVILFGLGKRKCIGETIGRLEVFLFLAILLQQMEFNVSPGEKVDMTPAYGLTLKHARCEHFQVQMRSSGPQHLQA
test_details: Inhibition of CYP1A1 activity in rat liver microsomes using benzo[alpha]pyrene as substrate at 100 nmol after 10 mins by fluorescence analysis
Design: species or system Microsome
experimental_context: probe benzo[alpha]pyrene
Give the number; % is assumed, so skip it.

[in] Could you tell me which inhibition at 10 min is on file for COc1ccc(CC2=NN3C(=NN(C(C)=O)C3(C)c3ccccc3)N(NC(C)=O)C2=O)cc1 (centres undefined) ?
[out] 59.8

[in] Repeat with CC(=O)NN1C(=O)C(Cc2ccccc2)=NN2C1=NN(C(C)=O)C2(C)c1ccc(Cl)cc1 (racemic)
[out] 87.9

[in] Repeat with Nn1c(N/N=C2\C(=O)Nc3ccccc32)nnc(Cc2ccccc2)c1=O
[out] 92.2

[in] Repeat with CC(=O)N1C(=O)C2(c3ccccc31)N(C(C)=O)N=C1N(N(C(C)=O)C(C)=O)C(=O)C(Cc3ccccc3)=NN12 (centres undefined)
[out] 64.6
